target: LATS1 (Homo sapiens (Human)); assay: LATS1 biochemical assay (Table 1A, Compound Examples 1-290; method in the earlier part)
Sequence (O95835 whole entry, looked up): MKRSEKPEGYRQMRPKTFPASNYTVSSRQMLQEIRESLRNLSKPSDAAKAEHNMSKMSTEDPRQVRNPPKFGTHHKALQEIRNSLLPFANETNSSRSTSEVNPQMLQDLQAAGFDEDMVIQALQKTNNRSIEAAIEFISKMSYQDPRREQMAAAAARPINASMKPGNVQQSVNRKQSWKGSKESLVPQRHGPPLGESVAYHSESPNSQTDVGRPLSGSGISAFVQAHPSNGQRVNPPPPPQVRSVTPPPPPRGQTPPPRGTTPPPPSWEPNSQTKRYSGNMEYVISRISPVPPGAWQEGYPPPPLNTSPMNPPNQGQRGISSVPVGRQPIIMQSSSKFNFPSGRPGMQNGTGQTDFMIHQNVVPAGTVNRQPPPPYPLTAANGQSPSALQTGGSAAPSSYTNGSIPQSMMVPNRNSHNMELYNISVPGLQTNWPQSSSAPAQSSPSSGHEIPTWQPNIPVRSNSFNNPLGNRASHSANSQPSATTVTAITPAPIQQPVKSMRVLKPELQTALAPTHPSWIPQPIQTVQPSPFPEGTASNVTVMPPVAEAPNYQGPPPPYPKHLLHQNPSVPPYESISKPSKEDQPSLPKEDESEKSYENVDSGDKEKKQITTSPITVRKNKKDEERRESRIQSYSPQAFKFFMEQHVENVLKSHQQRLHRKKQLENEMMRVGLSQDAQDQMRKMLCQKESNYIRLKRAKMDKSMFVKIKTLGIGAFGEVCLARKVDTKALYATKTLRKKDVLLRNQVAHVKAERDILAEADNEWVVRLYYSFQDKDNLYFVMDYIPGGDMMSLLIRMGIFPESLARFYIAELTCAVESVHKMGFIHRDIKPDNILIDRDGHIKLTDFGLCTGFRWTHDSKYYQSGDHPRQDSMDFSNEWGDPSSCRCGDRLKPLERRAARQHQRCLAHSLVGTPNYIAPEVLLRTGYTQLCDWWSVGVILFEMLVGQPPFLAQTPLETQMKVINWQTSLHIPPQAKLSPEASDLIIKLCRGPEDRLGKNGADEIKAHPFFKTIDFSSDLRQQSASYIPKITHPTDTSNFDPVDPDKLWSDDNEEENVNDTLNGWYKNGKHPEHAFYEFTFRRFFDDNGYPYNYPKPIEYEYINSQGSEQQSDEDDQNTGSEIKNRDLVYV
Sequence (Q7L9L4 whole entry partner, looked up): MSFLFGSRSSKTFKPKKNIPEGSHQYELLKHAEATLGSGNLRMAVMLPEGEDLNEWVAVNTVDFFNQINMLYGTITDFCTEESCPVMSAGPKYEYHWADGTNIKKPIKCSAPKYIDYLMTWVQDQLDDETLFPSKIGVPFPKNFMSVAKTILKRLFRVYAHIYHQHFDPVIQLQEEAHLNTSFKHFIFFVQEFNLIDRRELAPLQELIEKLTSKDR
measurement.type: pIC50
Keep in mind that pIC50 stands for -log10 of concentration in molar terms.

Example results:
compound | pIC50
CCN(c1nc(-c2ccncc2C)nc2cnccc12)C(C)C [Example 123] | 7.74
COC(=O)CC1(Nc2nc(-c3ccncc3)nc3cnccc23)CC1 [Example 102] | 6.90
O=C(O)CCCCCNc1nc(-c2ccncc2)nc2cnccc12 [Example 94] | 5.94
CC(C)(C)Nc1cc(-c2ccncc2F)nc2cnccc12 [Example 280] | 8.52
CC(C)(CCS(C)(=O)=O)Nc1nc(-c2ccncc2)nc2cnccc12 [Example 22] | 8.15
OCCC(Nc1nc(-c2ccncc2)nc2cnccc12)C(F)(F)F (centres unmarked) [Example 27] | 7.46
OCC1(Nc2nc(-c3cn[nH]c3)nc3cnccc23)CC1 [Example 192] | 6.70
CC(O)C(C)(C)Nc1nc(-c2ccncc2)nc2cnccc12 (centres unmarked) [Example 18] | 8.22
CC1CCCC1Nc1nc(-c2ccncc2)nc2cnccc12 (centres unmarked) [Example 17] | 8.30
CCC(CO)Nc1nc(-c2ccncc2)nc2cnccc12 (centres unmarked) [Example 78] | 7.96

Now look at this entry.
Query string: Dear colleague, please send me the reported pIC50 for Cn1nccc1-c1nc(NC2(C)CC2)c2ccncc2n1 [Example 172] when you can.
Result string: 7.77
